test: Clinical test in humans, single 30-min i.v. infusion, plasma PK; assay type: in vivo; conditions: human, in vivo, iv, 400 ug/kg, single 30-min i.v. infusion 400 μg/kg, mean
Ends that are not written are not given here.
outcomeMeasure: AUC(0-inf) (ng·h/mL)
Dear colleague, please return just the value in ng·h/mL, with no unit written.

Fill in the blank: the reported AUC(0-inf) of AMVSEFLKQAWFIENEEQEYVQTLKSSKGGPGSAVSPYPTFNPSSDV-NH2 [Peptide 1] is ____. 4870

----------
assay: Clinical test in humans, three 30-min i.v. infusions 8 hours apart, plasma PK; type: in vivo; settings: human, in vivo, iv, 250 ug/kg, three 30-min i.v. infusions 8 h apart, 250 μg/kg each, mean, read-out: AUC0-24
Ends that are not written are not given here.
outcomeMeasure: AUC(0-t) (ng·h/mL)
Dear colleague, please return just the value in ng·h/mL, with no unit written.

Fill in the blank: the reported AUC(0-t) of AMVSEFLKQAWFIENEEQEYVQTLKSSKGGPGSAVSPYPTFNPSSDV-NH2 [Peptide 1] is ____. 7550

----------
test: 14-day repeat IV dose toxicity study with toxicokinetic evaluation on Day 1 and 14 in dogs; format: in vivo, beagle dogs; conditions: dog, in vivo, iv, 1 mg/kg/day, IV 1.0 mg/kg/day, female, Day 14, read-out: AUC0-∞ (converted)
Ends that are not written are not given here.
outcomeMeasure: AUC(0-inf) (ng·h/mL)
Dear colleague, please return just the value in ng·h/mL, with no unit written.

Fill in the blank: the reported AUC(0-inf) of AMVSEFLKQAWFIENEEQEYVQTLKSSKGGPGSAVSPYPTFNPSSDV-NH2 [Peptide 1] is ____. 620

----------
assay: 14-day repeat dose IV toxicity study with toxicokinetic evaluation on Day 1 and Day 14 in rats; type: in vivo, Wistar rats; conditions: rat, in vivo, iv, 3 mg/kg/day, IV 3.0 mg/kg/day, female, Day 14, read-out: T1/2
Ends that are not written are not given here.
outcomeMeasure: half-life

Fill in the blank: the reported half-life of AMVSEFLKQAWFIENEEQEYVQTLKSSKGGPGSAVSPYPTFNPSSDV-NH2 [Peptide 1] is ____. 6.85 min

----------
experiment: 14-day repeat IV dose toxicity study with toxicokinetic evaluation on Day 1 and 14 in dogs; assay type: in vivo, beagle dogs; conditions: dog, in vivo, iv, 1 mg/kg/day, IV 1.0 mg/kg/day, male, Day 14
Ends that are not written are not given here.
outcomeMeasure: C0 (ng/mL)
Dear colleague, please return just the value in ng/mL, with no unit written.

Fill in the blank: the reported C0 of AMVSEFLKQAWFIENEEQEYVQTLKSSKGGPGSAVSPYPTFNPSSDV-NH2 [Peptide 1] is ____. 6590

----------
Experiment: Clinical test in humans, three 30-min i.v. infusions 8 hours apart, plasma PK
Format: in vivo
Details: human, in vivo, iv, 50 ug/kg, three 30-min i.v. infusions 8 h apart, 50 μg/kg each, GM, read-out: AUC0-tau3
Protocol: A total of 8 subjects were included in each group. In each group, 6 subjects received the active treatment and 2 received the placebo. […] Plasma samples were analyzed for Peptide 1 using validated Liquid chromatography—Tandem Mass spectrometry (LC-MS/MS) methods by Charles River Laboratories (CRL). […]
Ends that are not written are not given here.
outcomeMeasure: AUC (ng·h/mL)
Dear colleague, please return just the value in ng·h/mL, with no unit written.

Fill in the blank: the reported AUC of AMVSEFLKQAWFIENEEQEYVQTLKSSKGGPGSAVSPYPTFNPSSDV-NH2 [Peptide 1] is ____. 538

----------
assay: Clinical test in humans, three 30-min i.v. infusions 8 hours apart, plasma PK; assay type: in vivo; settings: human, in vivo, iv, three 30-min i.v. infusions 8 h apart, 250 μg/kg each, GM, read-out: AUC0-tau3
Ends that are not written are not given here.
outcomeMeasure: AUC (ng·h/mL)
Dear colleague, please return just the value in ng·h/mL, with no unit written.

Fill in the blank: the reported AUC of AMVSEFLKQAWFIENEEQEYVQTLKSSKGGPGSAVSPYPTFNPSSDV-NH2 [Peptide 1] is ____. 2460

----------
assay: Clinical test in humans, single 30-min i.v. infusion, plasma PK; assay type: in vivo; settings: human, in vivo, iv, 150 ug/kg, single 30-min i.v. infusion 150 μg/kg, mean, read-out: AUC0-24
Ends that are not written are not given here.
outcomeMeasure: AUC(0-t) (µg·h/mL)
Dear colleague, please return just the value in µg·h/mL, with no unit written.

Fill in the blank: the reported AUC(0-t) of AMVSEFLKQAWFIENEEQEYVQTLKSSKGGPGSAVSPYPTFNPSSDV-NH2 [Peptide 1] is ____. 1.52

----------
assay: Clinical test in humans, single 30-min i.v. infusion, plasma PK; format: in vivo; conditions: human, in vivo, iv, 50 ug/kg, single 30-min i.v. infusion 50 μg/kg, mean
Ends that are not written are not given here.
outcomeMeasure: clearance (mL/min/kg)
Dear colleague, please return just the value in mL/min/kg, with no unit written.

Fill in the blank: the reported clearance of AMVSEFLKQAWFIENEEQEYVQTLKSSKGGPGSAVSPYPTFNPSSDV-NH2 [Peptide 1] is ____. 1.83

----------
experiment: Clinical test in humans, single 30-min i.v. infusion, plasma PK; type: in vivo; details: human, in vivo, iv, 100 ug/kg, single 30-min i.v. infusion 100 μg/kg, mean
Ends that are not written are not given here.
outcomeMeasure: Cmax (ng/mL)
Dear colleague, please return just the value in ng/mL, with no unit written.

Fill in the blank: the reported Cmax of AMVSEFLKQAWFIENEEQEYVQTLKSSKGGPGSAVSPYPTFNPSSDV-NH2 [Peptide 1] is ____. 916
